- experimental.target: T1, Cyno PD-L1-rCD4-His (cynomolgus)
- T1 construct: The entry as printed begins with the signal peptide; also called cynomolgus PD-L1-rCD4-His
- T1 sequence (chain, as listed by the source limits assumed): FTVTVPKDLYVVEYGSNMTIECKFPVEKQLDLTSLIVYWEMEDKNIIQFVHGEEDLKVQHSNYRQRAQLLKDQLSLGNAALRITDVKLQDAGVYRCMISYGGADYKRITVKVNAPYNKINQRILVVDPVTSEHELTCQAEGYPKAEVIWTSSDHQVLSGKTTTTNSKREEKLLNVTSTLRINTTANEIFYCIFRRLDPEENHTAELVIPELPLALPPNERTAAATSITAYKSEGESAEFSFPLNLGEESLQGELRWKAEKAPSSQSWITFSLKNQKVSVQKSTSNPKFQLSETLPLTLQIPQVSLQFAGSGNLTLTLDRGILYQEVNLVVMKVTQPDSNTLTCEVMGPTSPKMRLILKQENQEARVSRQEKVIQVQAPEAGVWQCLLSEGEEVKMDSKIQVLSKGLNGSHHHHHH
- experiment.summary: SPR, IgG1 from culture supernatant
pKd: −log10 of the molar value.
Decision: pKd >= 9 yields Fulfilled, all other cases yield Not fulfilled.

Reference set (2 entries):
binder	qualitative.label
G1/929_01_A03 (antibody, human IgG1, V domains shown, IgG1) VH: EVQLVQSGAEVKRPGASVKVSCKASGYTFTSYGISWVRQAPGQGLEWMGWISAYSGNANYAQKLQGRVTMTTDTSTSTAYMELRSLRSDDTAVYYCARDLFPTIFGVSYYYYWGQGTLVTVSS VL: DIQMTQSPSTLSASVRDRVIITCRASQSIGNRLAWYQHKPGKAPKLLIYEASTSETGVPSRFSGSGSGTDFTLTISSLQPEDFATYYCQQSYSTPYTFGQGTKLEIKR	Not fulfilled
G1/887_04_G12 (antibody, human IgG1, V domains shown, IgG1 without LALA, kappa light chain) VH: EVQLVQSGAEVKRPGASVKVSCKASGYTFTSYGISWVRQAPGQGLEWMGWISAYNSNTNYAQKLQGRVTMTTDTSTSTAYMELRSLRSDDTAVYYCARDLFPTIFGVSYYYYWGQGTLVTVSS VL: DIQMTQSPSTLSASVGDRVTITCRASQSISGRLAWYQQKPGKAPNLLIYEASNLESGVPSRFSGSGSGTEFTLTISSLQPEDFATYYCQQSYSWPRTFGQGTKVEIKR	Fulfilled

Prompt: Quick check: does G1/887_04_E12 (antibody, human IgG1, V domains shown, IgG1 without LALA, kappa light chain; proline at Kabat position 28 of VH) VH: EVQLVQSGAEVKRPGASVKVSCKASGYPFTSYGISWVRQAPGQGLEWMGWISAYNSNTNYAQKLQGRVTMTTDTSTSTAYMELRSLRSDDTAVYYCARDLFPTIFGVSYYYYWGQGTLVTVSS VL: DIQMTQSPSTLSASVRDRVIITCRASQSIGNRLAWYQHKPGKAPKLLIYEASTSETGVPSRFSGSGSGTDFTLTISSLQPEDFATYYCQQSYSTPYTFGQGTKLEIKR have pKd greater than or equal to 9?
Completion: Fulfilled
